// data source = the supplement of paper PMC10567573

Recorded protein stability index values for a group of variants are listed next.
B1: C9orf25 (parent)
chain: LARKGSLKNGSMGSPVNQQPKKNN

# Variants of: B1
# procedure details: protein stability index of a GFP-peptide fusion (GPS, HEK-293T) (PSI 1-6); higher = more stable;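 also: lentivirally expressed fusions sorted by FACS into six bins by GFP to DsRed ratio, PSI derived from sequencing read proportions per bin multiplied by bin number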
# stated conditions: c terminus: a fixed tail appended

construct sequence: LHRKGSLKNGSMGSPVNQQPKKNN [A2H]
protein stability index: 4.77
--
construct sequence: QARKGSLKNGSMGSPVNQQPKKNN [L1Q]
protein stability index: 4.85
--
construct sequence: LARKGSLKNGSMGQPVNQQPKKNN [S14Q]
protein stability index: 4.74
--
construct sequence: LARKGSLKNGSMGSPVNQQPIKNN [K21I]
protein stability index: 4.28
--
construct sequence: LARKGSLKNGSMGSPVNDQPKKNN [Q18D]
protein stability index: 5.17
--
construct sequence: LARKGSLKNGSMGSPSNQQPKKNN [V16S]
protein stability index: 4.68
--
construct sequence: LARKGSLKNGSMMSPVNQQPKKNN [G13M]
protein stability index: 4.44
--
construct sequence: IARKGSLKNGSMGSPVNQQPKKNN [L1I]
protein stability index: 4.66
--
construct sequence: LARKESLKNGSMGSPVNQQPKKNN [G5E]
protein stability index: 4.82
--
construct sequence: LARKGSLKNGSMGSPVNQQPKKCN [N23C]
protein stability index: 4.68
--
construct sequence: LARKGSLKNGSMGSPVNYQPKKNN [Q18Y]
protein stability index: 4.17
--
construct sequence: LARKGSLKNGSMGSPVNQQPHKNN [K21H]
protein stability index: 4.9
--
construct sequence: LARKGSLKNGSMGSFVNQQPKKNN [P15F]
protein stability index: 4.2
--
construct sequence: LARKGSLKNGSMGSPVNQQPKKND [N24D]
protein stability index: 4.85
--
construct sequence: LARKGSLKNGSMGAPVNQQPKKNN [S14A]
protein stability index: 4.73
--
construct sequence: LARKGSLKNGSMGSLVNQQPKKNN [P15L]
protein stability index: 4.59
--
construct sequence: LARKGSLKNGPMGSPVNQQPKKNN [S11P]
protein stability index: 4.67
--
construct sequence: LKRKGSLKNGSMGSPVNQQPKKNN [A2K]
protein stability index: 4.13
--
construct sequence: LARKGSLKNGSMGSPINQQPKKNN [V16I]
protein stability index: 4.79
--
construct sequence: LARKGSLKNGSMGMPVNQQPKKNN [S14M]
protein stability index: 4.97
--
construct sequence: LARKGSLKNGSMISPVNQQPKKNN [G13I]
protein stability index: 4.72
--
construct sequence: LARKMSLKNGSMGSPVNQQPKKNN [G5M]
protein stability index: 4.06
--
construct sequence: LARKGSLKNGSMGSPGNQQPKKNN [V16G]
protein stability index: 4.75
--
construct sequence: LARKGSLKNGSMGSPVNQQPKKEN [N23E]
protein stability index: 4.68
--
construct sequence: LARKGSLKPGSMGSPVNQQPKKNN [N9P]
protein stability index: 4.36
--
construct sequence: LARKGSLKNGNMGSPVNQQPKKNN [S11N]
protein stability index: 4.88
--
construct sequence: LARKGSLKNGSMGSPVNQQPKKNT [N24T]
protein stability index: 4.83
--
construct sequence: LARKGSLKNGSKGSPVNQQPKKNN [M12K]
protein stability index: 5.15
--
construct sequence: LARKGSLKNGSMGSPVNQQCKKNN [P20C]
protein stability index: 4.54
--
construct sequence: LPRKGSLKNGSMGSPVNQQPKKNN [A2P]
protein stability index: 5.21
--
construct sequence: LARKGSLKNGSMGSPVEQQPKKNN [N17E]
protein stability index: 5.07
--
construct sequence: LARKGSLKNGSMGSPVNQWPKKNN [Q19W]
protein stability index: 3.79
--
construct sequence: LARKGSLKNMSMGSPVNQQPKKNN [G10M]
protein stability index: 4.85
--
construct sequence: LARKGSYKNGSMGSPVNQQPKKNN [L7Y]
protein stability index: 4.17
--
construct sequence: LARKNSLKNGSMGSPVNQQPKKNN [G5N]
protein stability index: 4.07
--
construct sequence: LARKGSLKNGSMGSPVNQDPKKNN [Q19D]
protein stability index: 4.78
--
construct sequence: LARKGSWKNGSMGSPVNQQPKKNN [L7W]
protein stability index: 3.97
--
construct sequence: LARCGSLKNGSMGSPVNQQPKKNN [K4C]
protein stability index: 4.74
--
construct sequence: LARKGSLKNGSMGGPVNQQPKKNN [S14G]
protein stability index: 4.8
--
construct sequence: LARKGSLKNGSMGSPVNNQPKKNN [Q18N]
protein stability index: 4.59
--
construct sequence: LARKGSLKTGSMGSPVNQQPKKNN [N9T]
protein stability index: 4.78
--
construct sequence: LARKGSLKNGSMGSPVNQQLKKNN [P20L]
protein stability index: 4.11
--
construct sequence: LARKGSLKNGSEGSPVNQQPKKNN [M12E]
protein stability index: 5.29
--
construct sequence: RARKGSLKNGSMGSPVNQQPKKNN [L1R]
protein stability index: 4.81
--
construct sequence: LARKGSLKNGSMGSPRNQQPKKNN [V16R]
protein stability index: 4.69
--
construct sequence: LARKGSLKNGSMWSPVNQQPKKNN [G13W]
protein stability index: 3.66
